Data provenance is ChEMBL document CHEMBL1157541.

TEST DESCRIPTION: Half life in C57BL/6 mouse at 10 mg/kg, po
Assay type: ADME, organism-based
Parameters: dose 10 mg/kg, route oral
CONDITION DESCRIPTION: in vivo
REPORTED ENDPOINT: half-life

Query: half-life; subject: O=C(NCCS(=O)(=O)c1ccc(C(F)(F)F)cn1)c1ccc(Cl)cc1 2.7 h

----------
Listing of recorded IC50 by entry.
TESTED TARGET: Peroxisome proliferator-activated receptor delta (Homo sapiens)
Sequence (Q03181 whole entry): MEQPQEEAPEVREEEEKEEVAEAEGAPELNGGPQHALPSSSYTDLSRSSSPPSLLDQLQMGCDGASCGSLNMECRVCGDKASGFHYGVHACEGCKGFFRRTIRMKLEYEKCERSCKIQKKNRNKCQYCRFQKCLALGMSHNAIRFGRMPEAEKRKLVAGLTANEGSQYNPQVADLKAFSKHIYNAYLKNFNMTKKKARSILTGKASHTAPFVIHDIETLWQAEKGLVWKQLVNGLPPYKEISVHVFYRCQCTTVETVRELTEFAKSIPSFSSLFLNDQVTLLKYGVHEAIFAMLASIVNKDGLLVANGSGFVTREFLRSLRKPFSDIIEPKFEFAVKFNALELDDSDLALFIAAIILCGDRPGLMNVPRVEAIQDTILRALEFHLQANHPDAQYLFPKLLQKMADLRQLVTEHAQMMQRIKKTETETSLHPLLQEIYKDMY
TEST DESCRIPTION: Inhibition of human PPARdelta receptor by ligand displacement assay
Report only the number, with the unit nM understood.

* O=C(NCCS(=O)(=O)c1ccc(C(F)(F)F)cn1)c1ccc(Br)cc1F | 50.1
* O=C(NCCS(=O)(=O)c1ccc(C(F)(F)F)cn1)c1ccc(Cl)c(Br)c1 | 126
* O=C(NCCS(=O)(=O)c1ccc(C(F)(F)F)cn1)c1ccc(-c2ccccc2)cc1 | 200

// IC50 lookup, key: O=C(NCCS(=O)(=O)c1ccc(C(F)(F)F)cn1)c1ccc(Cl)cc1 200

For the molecule shown here, Cc1cc(C(=O)NCCS(=O)(=O)c2ccc(C(F)(F)F)cn2)ccc1Cl , give the reported IC50. 126

# lookup: IC50 of O=C(NCCS(=O)(=O)c1ccc(C(F)(F)F)cn1)c1ccc(OC(F)(F)F)cc1 100

# query: IC50 of entry CC(C)Cc1ccc(C(=O)NCCS(=O)(=O)c2ccc(C(F)(F)F)cn2)cc1 316
